# Tested on: CESS (Acute Myeloid Leukemia)
# measurement protocol: Bliss excess, mean over the matrix (fraction); higher = more synergy;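 note: after 72 h of two-drug dosing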
compounds and their reported Bliss excess
Give your answer as a number; write no unit.

Input: Entry CCN(CCO)CCCOc1ccc2c(Nc3cc(CC(=O)Nc4cccc(F)c4)[nH]n3)ncnc2c1 [AZD2811] + O=C(c1cc(Cc2n[nH]c(=O)c3ccccc23)ccc1F)N1CCN(C(=O)C2CC2)CC1 [Olaparib] (first compound max 1 µM, 7x7, partner max 10 µM) , system CESS (Acute Myeloid Leukemia): what Bliss excess was measured?
Output: 0.0591

Input: Entry COc1cccc(OCCCN)c1-c1cc(Nc2cnc(C#N)cn2)n[nH]1 [Prexasertib] + Cc1cc2ncnn2cc1Nc1ncc2c(n1)n(C1CCOCC1)c(=O)n2C [AZD7648] (first compound max 1 µM, 7x7, partner max 10 µM) , system CESS (Acute Myeloid Leukemia): what Bliss excess was measured?
Output: 0.0409

Input: Entry CN(CCO)CC[C@H](CSc1ccccc1)Nc1ccc(S(=O)(=O)NC(=O)c2ccc(N3CCC([C@@H](O)c4ccccc4-c4ccc(Cl)cc4)CC3)cc2)cc1S(=O)(=O)C(F)(F)F [AZD4320] + C1CN(CCC1(C(=O)N[C@@H](CCO)C2=CC=C(C=C2)Cl)N)C3=NC=NC4=C3C=CN4 [Capivasertib] (first compound max 1 µM, 7x7, partner max 3 µM) , system CESS (Acute Myeloid Leukemia): what Bliss excess was measured?
Output: 0.0517

====

# Tested on: EW-7 (Ewing's Sarcoma)
# measurement protocol: Bliss excess, mean over the matrix (fraction); higher = more synergy
outcome measure: Bliss excess
Give your answer as a number; write no unit.

Worked cases, Bliss excess given:
CC1(C)CCC(CN2CCN(c3ccc(C(=O)NS(=O)(=O)c4ccc(NCC5CCOCC5)c([N+](=O)[O-])c4)c(Oc4cnc5[nH]ccc5c4)c3)CC2)=C(c2ccc(Cl)cc2)C1 [Venetoclax] + Cn1cnc2c(F)c(Nc3ccc(Br)cc3Cl)c(C(=O)NOCCO)cc21 [Selumetinib] (first compound max 1 µM, 7x7, partner max 3 µM)
-0.0058
Cn1cnc2c(F)c(Nc3ccc(Br)cc3Cl)c(C(=O)NOCCO)cc21 [Selumetinib] + CC(C)n1c(=O)n(C)c2cnc3cc(F)c(-c4ccc(OCCCN5CCCCC5)nc4)cc3c21 [AZD1390] (first compound max 10 µM, 7x7, partner max 0.3 µM)
-0.0117
COc1nnc2ccc(N3CCC(c4ccc(OCCN5CCN(C)C(=O)[C@H]5C)cc4)CC3)nn12 [AZD5153] + C=CCn1c(=O)c2cnc(Nc3ccc(N4CCN(C)CC4)cc3)nc2n1-c1cccc(C(C)(C)O)n1 [AZD1775] (first compound max 1 µM, partner max 1 µM)
-0.0403
Cc1cc2ncnn2cc1Nc1ncc2c(n1)n(C1CCOCC1)c(=O)n2C [AZD7648] + COc1cc([C@@H]2c3cc4c(cc3[C@@H](O[C@@H]3O[C@@H]5CO[C@@H](C)O[C@H]5[C@H](O)[C@H]3O)[C@H]3COC(=O)[C@H]23)OCO4)cc(OC)c1O [Etoposide] (first compound max 10 µM, 7x7, partner max 10 µM)
0.0263
CN(CCO)CC[C@H](CSc1ccccc1)Nc1ccc(S(=O)(=O)NC(=O)c2ccc(N3CCC([C@@H](O)c4ccccc4-c4ccc(Cl)cc4)CC3)cc2)cc1S(=O)(=O)C(F)(F)F [AZD4320] + C[C@@H]1COCCN1C2=NC(=NC(=C2)C3(CC3)[S@](=N)(=O)C)C4=C5C=CNC5=NC=C4 [AZD6738] (first compound max 1 µM, 7x7, partner max 10 µM)
0.0835

Input: For the molecule CCc1c2c(nc3ccc(O)cc13)-c1cc3c(c(=O)n1C2)COC(=O)[C@]3(O)CC [SN-38] + CN(C)CCCOc1ccc(-c2ccc3ncc4c(c3c2)n(C2CCOCC2)c(=O)n4C)cn1 [AZD0156] (first compound max 0.3 µM, 7x7, partner max 1 µM) , what Bliss excess is on record?
Output: 0.0647

Input: For the molecule CCN(CCO)CCCOc1ccc2c(Nc3cc(CC(=O)Nc4cccc(F)c4)[nH]n3)ncnc2c1 [AZD2811] + C[C@@H]1COCCN1C2=NC(=NC(=C2)C3(CC3)[S@](=N)(=O)C)C4=C5C=CNC5=NC=C4 [AZD6738] (first compound max 1 µM, 7x7, partner max 10 µM) , what Bliss excess is on record?
Output: -0.0469

Input: For the molecule CN(CCO)CC[C@H](CSc1ccccc1)Nc1ccc(S(=O)(=O)NC(=O)c2ccc(N3CCC([C@@H](O)c4ccccc4-c4ccc(Cl)cc4)CC3)cc2)cc1S(=O)(=O)C(F)(F)F [AZD4320] + CN(C)CCCOc1ccc(-c2ccc3ncc4c(c3c2)n(C2CCOCC2)c(=O)n4C)cn1 [AZD0156] (first compound max 1 µM, 7x7, partner max 1 µM) , what Bliss excess is on record?
Output: 0.0524

Input: For the molecule CCN(CCO)CCCOc1ccc2c(Nc3cc(CC(=O)Nc4cccc(F)c4)[nH]n3)ncnc2c1 [AZD2811] + C=CCn1c(=O)c2cnc(Nc3ccc(N4CCN(C)CC4)cc3)nc2n1-c1cccc(C(C)(C)O)n1 [AZD1775] (first compound max 1 µM, partner max 1 µM) , what Bliss excess is on record?
Output: 0.0623

Input: For the molecule Cc1cc2ncnn2cc1Nc1ncc2c(n1)n(C1CCOCC1)c(=O)n2C [AZD7648] + CN(C)CCCOc1ccc(-c2ccc3ncc4c(c3c2)n(C2CCOCC2)c(=O)n4C)cn1 [AZD0156] (first compound max 10 µM, 7x7, partner max 1 µM) , what Bliss excess is on record?
Output: -0.03

Input: For the molecule Cn1cnc2c(F)c(Nc3ccc(Br)cc3Cl)c(C(=O)NOCCO)cc21 [Selumetinib] + CCN(CCO)CCCOc1ccc2c(Nc3cc(CC(=O)Nc4cccc(F)c4)[nH]n3)ncnc2c1 [AZD2811] (first compound max 10 µM, 7x7, partner max 1 µM) , what Bliss excess is on record?
Output: -0.0023

Input: For the molecule C=CCn1c(=O)c2cnc(Nc3ccc(N4CCN(C)CC4)cc3)nc2n1-c1cccc(C(C)(C)O)n1 [AZD1775] + Nc1ccn([C@@H]2O[C@H](CO)[C@@H](O)C2(F)F)c(=O)n1 [Gemcitabine] (first compound max 1 µM, partner max 0.3 µM) , what Bliss excess is on record?
Output: 0.0396

Input: For the molecule COc1cc2c(cc1OCCCCCOc1cc3c(cc1OC)C(=O)N1C=C(C)C[C@H]1C=N3)N=C[C@@H]1CC(C)=CN1C2=O [SG3199] + O=C(c1cc(Cc2n[nH]c(=O)c3ccccc23)ccc1F)N1CCN(C(=O)C2CC2)CC1 [Olaparib] (first compound max 0.001 µM, 7x7, partner max 10 µM) , what Bliss excess is on record?
Output: -0.0341

Input: For the molecule COc1cccc(OCCCN)c1-c1cc(Nc2cnc(C#N)cn2)n[nH]1 [Prexasertib] + C=CCn1c(=O)c2cnc(Nc3ccc(N4CCN(C)CC4)cc3)nc2n1-c1cccc(C(C)(C)O)n1 [AZD1775] (first compound max 1 µM, partner max 1 µM) , what Bliss excess is on record?
Output: 0.0157

====

compounds and their reported Bliss excess
# System: EW-7 (Ewing's Sarcoma)
# measurement protocol: Bliss excess, mean over the matrix (fraction); higher = more synergy
Give your answer as a number; write no unit.

COc1nnc2ccc(N3CCC(c4ccc(OCCN5CCN(C)C(=O)[C@H]5C)cc4)CC3)nn12 [AZD5153] + C[C@@H]1COCCN1C2=NC(=NC(=C2)C3(CC3)[S@](=N)(=O)C)C4=C5C=CNC5=NC=C4 [AZD6738] (first compound max 1 µM, 7x7, partner max 10 µM)
0.034
CN(CCO)CC[C@H](CSc1ccccc1)Nc1ccc(S(=O)(=O)NC(=O)c2ccc(N3CCC([C@@H](O)c4ccccc4-c4ccc(Cl)cc4)CC3)cc2)cc1S(=O)(=O)C(F)(F)F [AZD4320] + CC(=O)O[C@H]1C(=O)[C@@]2(C)[C@H]([C@H](OC(=O)c3ccccc3)[C@]3(O)C[C@H](OC(=O)[C@H](O)[C@@H](NC(=O)c4ccccc4)c4ccccc4)C(C)=C1C3(C)C)[C@]1(OC(C)=O)CO[C@@H]1C[C@@H]2O [Paclitaxel] (first compound max 1 µM, 7x7, partner max 3 µM)
0.132

Then there is this compound:
Input: For the compound CN(CCO)CC[C@H](CSc1ccccc1)Nc1ccc(S(=O)(=O)NC(=O)c2ccc(N3CCC([C@@H](O)c4ccccc4-c4ccc(Cl)cc4)CC3)cc2)cc1S(=O)(=O)C(F)(F)F [AZD4320] + C[C@@H](Nc1cc(F)cc(F)c1)c1cc(C(=O)N(C)C)cc2c(=O)cc(N3CCOCC3)oc12 [AZD8186] (first compound max 1 µM, 7x7, partner max 3 µM) , what Bliss excess is on record?
Output: -0.014
